# System: c-Src
# assay: phosphorylation enrichment, bacterial display (enrichment ratio); higher = better substrate or ligand; peptides without Tyr show the background
measuredQuantity: phosphorylation enrichment
Numbers only.

Sample records with phosphorylation enrichment:
LHSEAYLKYNE [PBRM1_Y1610_I1614N]	0.586
TLNHQYDFTFD [CSNK1A1_Y292_YF]	0.485
EVLKNYSQQKD [GOLGA4_Y1551_N1552S]	0.433
TFRPPYFHRNC [HGD_Y333_YF]	0.454

For each entry beneath this line, provide reported phosphorylation enrichment.
1. PVQAAYKKVVA [HBB_Y131_Q132K]
2. FARNSYVAGQF [G6PD_Y107_YF]
3. IVAREYYSKAD [CAMK2B_Y107_E110K]
4. PEVRRCVLPLN [RPE65_Y368_Y368C]
5. EKLIQYCQSKS [AKR1B1_Y199_G204S]
6. FMLFQYLKQIE [RPAP3_Y569_D564Y_YF]
7. FFWDGYMPRQF [GSS_Y270_R267W_YF]

0.687
0.408
0.525
0.586
0.448
0.498
0.43

For each entry beneath this line, provide reported phosphorylation enrichment.
1. EPNSRYTFKLE [USH2A_Y3745_YF]
2. AALRLYHVSDS [VIL1_Y256_K254R]

0.365
0.451

###

# Tested on: c-Abl (mouse)
# assay: phosphorylation enrichment, bacterial display (enrichment ratio); higher = better substrate or ligand; peptides without Tyr show the background
measuredQuantity: phosphorylation enrichment
Numbers only.

RKKEEYKMALF [F8_Y1990_YF]	0.72

For each entry beneath this line, provide reported phosphorylation enrichment.
1. MDQAEYQAKIR [DHX58_Y518]
2. HELYVYKCDEN [DOCK3_Y548]

[0.729, 0.6]

For each entry beneath this line, provide reported phosphorylation enrichment.
1. FRAPGYREVVI [TNS2_Y673_YF]
2. TPGPNYRPGFN [USH2A_Y463_YF]
3. TTPGPYRSIYF [MPG_Y71]
4. IKKFKYRIEEH [GJA1_Y137_G138R]
5. RFFTTYDTNGR [CLCA1_Y665_YF]
6. EEKKKYYDTKI [CASP5_Y103]
7. VYAANYYKLLG [ROR2_Y645_D644N]
8. PANMVYSTVEI [SLAMF7_Y304_T302M]

[0.525, 0.576, 0.547, 0.449, 0.858, 0.618, 1.23, 6.82]

For each entry beneath this line, provide reported phosphorylation enrichment.
1. VVLEDYLDIKN [CLCNKB_Y138]
2. DEWFLYKMRDI [CPS1_Y879_K875E]
3. HEHKGYNANFC [TGFB2_Y341_P338H]

[0.576, 0.935, 0.464]

###

# testTarget: Grb2 SH2 (UniProt P62993)
# Sequence (P62993 whole entry, looked up): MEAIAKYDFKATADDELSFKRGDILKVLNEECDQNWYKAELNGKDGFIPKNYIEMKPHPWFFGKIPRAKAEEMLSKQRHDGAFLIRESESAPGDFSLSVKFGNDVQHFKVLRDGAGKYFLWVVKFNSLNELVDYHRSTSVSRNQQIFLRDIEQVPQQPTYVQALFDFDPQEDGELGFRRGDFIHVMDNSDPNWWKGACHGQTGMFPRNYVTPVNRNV
# assay: SH2 binding enrichment of the phosphorylated peptide, bacterial display (enrichment ratio); higher = better substrate or ligand; peptides without Tyr show the background
measuredQuantity: SH2 binding enrichment
Give bare numbers.

PDGVEYLKNNP [GRIN3A_Y831_D835N]	0.982
AGADGYGYLAP [FOXL2_Y186]	0.759
PKSLFYLLLKL [TRPC6_Y775]	0.998
RDMNAYIRPSP [MMAA_Y207]	0.804
EVKRLYGSVCD [TC2N_Y154]	0.714

For each entry beneath this line, provide reported SH2 binding enrichment.
1. ALAHKYPGGGG [HBB_Y146_H147P]
2. ISHVAYRVLGK [TRRAP_Y892]
3. VFLGAYDCFLP [SLC22A5_Y486_R488C_YF]

1. 0.516
2. 0.775
3. 0.947

For each entry beneath this line, provide reported SH2 binding enrichment.
1. SPPPAFTPMSG [ERBB4_Y1056_Y1056F]
2. EYYENYIEELK [PARP4_Y218_F215Y]

0.67
2.13

For each entry beneath this line, provide reported SH2 binding enrichment.
1. AAILGYCRGEA [XPC_Y669]
2. CLEKEYFDQHF [NPC1_Y394_R389C]
3. EKDSNYCLCRT [ASIC2_Y357]
4. PLDGEYFTLQV [TP53_Y327_I332V]
5. PTTKTYFPRFD [HBA1_Y43_H46R]
6. ADDSYYTVRSA [ZAP70_Y493_A495V]
7. VVEFGYEFFAK [PPP1CB_Y254_D252Y_YF]
8. CGTPDYIAPEI [PRKCG_Y521]

[0.821, 0.906, 0.976, 0.688, 0.819, 0.733, 0.96, 0.853]

For each entry beneath this line, provide reported SH2 binding enrichment.
1. GKTQQYECKWY [BCR_Y751_D752E]
2. FFRDGCMPRQF [GSS_Y270_Y270C_YF]
3. DEWFLYKMRDI [CPS1_Y879_K875E]
4. LTYHMYADPNI [SOS1_Y618_F623I]
5. QAKRKYQEASK [FES_Y156]
6. EPDSLYGCGGG [ATM_Y2019]
7. DASAVYLHDFQ [PLCG2_Y242]
8. SHSMRYFYTAV [HLA-C_Y31_D33Y]

0.677
0.849
0.653
0.71
1.16
0.977
0.933
1.28

For each entry beneath this line, provide reported SH2 binding enrichment.
1. IHETTYNSIKK [ACTA1_Y281_M285K]
2. KRFRIYHLAIS [BRCA2_Y3009_T3013I_YF]
3. VGTKWYMAPEV [ACVRL1_Y375_R374W]
4. EKLIQYCQSKS [AKR1B1_Y199_G204S]

[0.673, 1.81, 0.956, 0.964]

For each entry beneath this line, provide reported SH2 binding enrichment.
1. VLSIDYFFPPQ [AR_Y552_P549S_YF]
2. KKLAEYGPQGK [CLCA1_Y147_R152K]

[1.46, 0.769]

For each entry beneath this line, provide reported SH2 binding enrichment.
1. HFECKYVINAI [MAOA_Y268_YF]
2. PTTKTYFPQFD [HBA1_Y43_H46Q]
3. HVSISYDIPLT [GAB1_Y307_P311L]
4. DTNIAYCLHPR [POMT1_Y581_W582C]
5. ETKENYGKTLK [CHL1_Y291]
6. GVKLTYGDAQS [SLC28A1_Y404_N409S]
7. PYYTSYPPSPD [GDAP2_Y491]

1. 0.619
2. 0.772
3. 0.96
4. 0.712
5. 1.16
6. 0.798
7. 0.728

For each entry beneath this line, provide reported SH2 binding enrichment.
1. NFAKMYCNPDA [KNL1_Y489_YF]
2. LSKDLYLISQM [LARP4_Y141]
3. KQLYAYKMLMA [TMC2_Y209]

1: 0.789; 2: 0.912; 3: 1.32

###

# testTarget: MERTK (UniProt Q12866)
# Sequence (Q12866 whole entry, looked up): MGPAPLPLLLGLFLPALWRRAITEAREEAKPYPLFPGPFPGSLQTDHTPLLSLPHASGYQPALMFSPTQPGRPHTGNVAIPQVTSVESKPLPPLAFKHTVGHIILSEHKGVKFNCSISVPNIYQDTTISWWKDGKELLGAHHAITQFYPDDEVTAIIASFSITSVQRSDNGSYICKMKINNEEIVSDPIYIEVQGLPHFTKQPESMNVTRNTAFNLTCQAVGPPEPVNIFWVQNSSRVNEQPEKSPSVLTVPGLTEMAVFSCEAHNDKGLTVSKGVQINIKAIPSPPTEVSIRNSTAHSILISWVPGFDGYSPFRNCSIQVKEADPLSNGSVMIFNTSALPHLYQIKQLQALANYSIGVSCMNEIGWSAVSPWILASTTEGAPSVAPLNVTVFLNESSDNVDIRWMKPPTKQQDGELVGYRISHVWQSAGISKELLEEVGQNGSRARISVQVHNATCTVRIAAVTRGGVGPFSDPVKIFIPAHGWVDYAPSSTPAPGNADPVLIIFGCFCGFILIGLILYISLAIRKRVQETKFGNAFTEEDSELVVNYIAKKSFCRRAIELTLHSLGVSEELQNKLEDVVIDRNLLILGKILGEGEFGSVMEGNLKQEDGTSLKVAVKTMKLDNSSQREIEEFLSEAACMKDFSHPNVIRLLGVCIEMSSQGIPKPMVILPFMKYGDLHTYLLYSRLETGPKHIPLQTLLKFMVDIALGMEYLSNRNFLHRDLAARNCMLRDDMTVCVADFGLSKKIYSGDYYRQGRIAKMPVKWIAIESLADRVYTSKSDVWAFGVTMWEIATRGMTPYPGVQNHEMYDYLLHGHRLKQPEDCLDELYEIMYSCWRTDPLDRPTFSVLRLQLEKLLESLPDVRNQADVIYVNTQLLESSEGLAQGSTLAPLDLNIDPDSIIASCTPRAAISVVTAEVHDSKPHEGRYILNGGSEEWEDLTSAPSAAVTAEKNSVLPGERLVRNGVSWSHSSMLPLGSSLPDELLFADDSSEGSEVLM
# assay: phosphorylation enrichment, bacterial display (enrichment ratio); higher = better substrate or ligand; peptides without Tyr show the background
Provide the reported phosphorylation enrichment of each item.
Numbers only.

Sample records with phosphorylation enrichment:
DAPVVYLGSFG [PRAG1_Y132_R137G]	0.437
TLLSAYQIPRT [GAB2_Y324_P320L]	1.18

For each entry beneath this line, provide reported phosphorylation enrichment.
1. KVKPIYFHTRG [AR_Y916_Q920R]
2. MHRRQYELLGG [GNAS_Y391_L388R]
3. LTNDRYVATLT [IL6ST_Y396_L397V]

1. 0.456
2. 0.391
3. 0.622

For each entry beneath this line, provide reported phosphorylation enrichment.
1. VLSIDYFFPPQ [AR_Y552_P549S_YF]
2. IWGKKYPTCNS [PTPRZ1_Y53_N48I]
3. GMRHGHGVRQS [JPH2_Y141_Y141H]

1: 0.719; 2: 0.407; 3: 0.462

For each entry beneath this line, provide reported phosphorylation enrichment.
1. HLRAGYIIPLQ [GAA_Y822]
2. LHQSTYQCFDV [SLC7A14_Y693_R695C_YF]
3. GLAELYEFQKK [CKAP5_Y1854_K1857Q_YF]
4. LIEQAYDNLHE [PRPF8_Y871_P874L]
5. EFGRRYGFSCQ [CCDC93_Y209_R213C_YF]

1: 0.355; 2: 2.26; 3: 0.526; 4: 0.426; 5: 0.491

###

# testTarget: Grb2 SH2 (UniProt P62993)
# assay: SH2 binding enrichment of the phosphorylated peptide, bacterial display (enrichment ratio); higher = better substrate or ligand; peptides without Tyr show the background
measuredQuantity: SH2 binding enrichment

Sample records with SH2 binding enrichment:
EILLSDLRTGY [TGM1_Y365_Y365D]	0.74
FSDPDYLAAVD [GLB1_Y154_S149F]	0.746
LAARYYNWVSF [FLT4_Y1231]	6.96
VRFVDYVLFRS [FAM189B_Y361_S358F]	2.04
SDPIIYTLENV [ADGRE1_Y534_I539V]	0.88
CQAHGYSCQLI [STK11_Y156_F157S]	0.854
MKKKTYAMGGG [GAN_Y424_I423T]	0.728
LPPREYVVVPS [CAPN1_Y494_G492R]	0.918

For each entry beneath this line, provide reported SH2 binding enrichment.
1. TMKSHYMELFD [BBS2_Y644_R643H_YF]
2. LFSINYLHFGD [KDM4C_Y201_E206D_YF]
3. GASWRYGSGVS [NEU1_Y242]
4. GDEAIYATVAG [NRTKtide_2018]
5. RGVTRYIYNRE [HLA-DQB1_Y62_Y58G]

[0.824, 1.5, 0.728, 1.01, 0.802]

Hello, the source for this data is the supplement of paper PMC10065799, in case you need it.
